This section presents compounds with their documented pIC50 values.
Tested on: α4β1 integrin (Homo sapiens (Human), UniProt P05556+P13612)
Sequence (P13612 34-1032): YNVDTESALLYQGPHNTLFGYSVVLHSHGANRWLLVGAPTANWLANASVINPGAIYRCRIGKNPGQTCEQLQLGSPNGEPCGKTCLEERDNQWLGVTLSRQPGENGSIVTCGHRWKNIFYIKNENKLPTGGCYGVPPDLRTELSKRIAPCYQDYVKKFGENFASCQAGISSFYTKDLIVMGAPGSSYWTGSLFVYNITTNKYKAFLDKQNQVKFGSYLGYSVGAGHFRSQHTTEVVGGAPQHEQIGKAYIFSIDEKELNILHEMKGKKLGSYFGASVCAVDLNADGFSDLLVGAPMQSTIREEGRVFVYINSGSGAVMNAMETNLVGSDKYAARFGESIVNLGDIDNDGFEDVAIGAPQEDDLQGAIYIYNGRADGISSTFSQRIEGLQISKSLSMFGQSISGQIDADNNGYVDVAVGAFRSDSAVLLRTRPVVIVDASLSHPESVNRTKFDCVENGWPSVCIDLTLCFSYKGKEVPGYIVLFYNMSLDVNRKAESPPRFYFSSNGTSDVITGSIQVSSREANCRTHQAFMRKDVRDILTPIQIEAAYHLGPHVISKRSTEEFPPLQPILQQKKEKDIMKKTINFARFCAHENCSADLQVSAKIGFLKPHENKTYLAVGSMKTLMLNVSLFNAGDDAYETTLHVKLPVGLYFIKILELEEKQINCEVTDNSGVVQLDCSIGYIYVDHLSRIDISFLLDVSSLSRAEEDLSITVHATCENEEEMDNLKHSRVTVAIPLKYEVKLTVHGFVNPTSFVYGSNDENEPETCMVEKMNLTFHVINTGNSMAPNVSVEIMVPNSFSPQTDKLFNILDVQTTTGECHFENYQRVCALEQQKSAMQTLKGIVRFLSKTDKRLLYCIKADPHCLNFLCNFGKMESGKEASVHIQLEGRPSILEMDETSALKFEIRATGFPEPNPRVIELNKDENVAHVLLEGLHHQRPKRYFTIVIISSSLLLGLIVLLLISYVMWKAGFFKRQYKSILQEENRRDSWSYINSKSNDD
Sequence (P05556 21-798): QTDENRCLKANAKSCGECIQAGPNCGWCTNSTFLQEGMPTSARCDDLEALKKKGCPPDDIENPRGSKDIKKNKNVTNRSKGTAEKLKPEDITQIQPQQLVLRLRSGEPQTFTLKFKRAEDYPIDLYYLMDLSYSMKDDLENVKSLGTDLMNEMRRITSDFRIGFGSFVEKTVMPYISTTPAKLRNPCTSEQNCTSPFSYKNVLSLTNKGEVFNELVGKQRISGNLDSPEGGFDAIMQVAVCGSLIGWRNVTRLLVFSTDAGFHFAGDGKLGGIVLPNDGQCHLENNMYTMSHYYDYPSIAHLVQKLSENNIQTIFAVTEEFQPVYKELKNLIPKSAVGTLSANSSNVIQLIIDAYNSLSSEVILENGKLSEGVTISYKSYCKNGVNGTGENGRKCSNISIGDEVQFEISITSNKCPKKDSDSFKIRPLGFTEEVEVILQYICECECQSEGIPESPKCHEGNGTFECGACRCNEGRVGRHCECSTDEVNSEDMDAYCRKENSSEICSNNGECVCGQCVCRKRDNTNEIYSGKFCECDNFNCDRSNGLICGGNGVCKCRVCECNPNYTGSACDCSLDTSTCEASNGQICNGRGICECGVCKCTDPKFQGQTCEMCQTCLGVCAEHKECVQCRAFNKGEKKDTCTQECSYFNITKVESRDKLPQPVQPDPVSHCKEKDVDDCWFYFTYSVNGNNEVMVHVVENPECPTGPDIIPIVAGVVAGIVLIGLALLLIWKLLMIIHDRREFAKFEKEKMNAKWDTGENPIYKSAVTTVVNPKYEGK
Experiment: Integrin Adhesion Assay: Protocol 5 (VCAM-coated plate, RPMI-8866 cells with stable LOF mutation of the ITGB7 gene)
Format: cell-based
Particulars: Protocol 5; RPMI-8866 cells with LOF mutation of ITGB7, VCAM; read-out: Mean IC50 α4β1 KO
pIC50: −log10 of the molar value.

These solved cases illustrate the format of a correct answer.
Smiles	Tested on	pIC50
COc1cc(CN2CCCCC2)cc(OC)c1-c1cccc2c(C[C@H](NC(=O)c3c(C)cccc3F)C(=O)O)cccc12	α4β1 integrin (Homo sapiens (Human), UniProt P05556+P13612)	6.00 to 7.00
O=C(O)[C@H](Cc1cccc2c(-c3ncc(CN4CC5(CC5)C4)c4ccccc34)cccc12)NC(=O)C1(C(F)(F)F)CCN(CC(F)(F)F)CC1	α4β1 integrin (Homo sapiens (Human), UniProt P05556+P13612)	< 6.00
COc1cccc(OCCN2CCCCC2)c1-c1cccc2c(C[C@H](NC(=O)C3(C(F)(F)F)CCN(CC(F)(F)F)CC3)C(=O)O)cccc12	α4β1 integrin (Homo sapiens (Human), UniProt P05556+P13612)	6.00 to 7.00
COC(=O)[C@H](Cc1cccc2c(-c3ncc(CN(C)C)c4ccccc34)cccc12)NC(=O)C1(C(F)(F)F)CCN(CC(F)F)CC1	α4β1 integrin (Homo sapiens (Human), UniProt P05556+P13612)	6.00 to 7.00
COc1c(CN2CCCCC2)ccc(Cl)c1-c1cccc2c(C[C@H](NC(=O)c3c(C)cccc3F)C(=O)O)cccc12	α4β1 integrin (Homo sapiens (Human), UniProt P05556+P13612)	6.00 to 7.00

Please examine the following record next.
Kindly note the recorded pIC50 for COc1cncc(OC)c1-c1cccc2c(C[C@H](NC(=O)C3(C(F)(F)F)CCN(CC(F)(F)F)CC3)C(=O)O)cccc12 , which is 6.00 to 7.00

====

Tested on: α4β7 integrin (Homo sapiens (Human), UniProt P13612+P26010)
Sequence (P26010 20-798, one chain of several): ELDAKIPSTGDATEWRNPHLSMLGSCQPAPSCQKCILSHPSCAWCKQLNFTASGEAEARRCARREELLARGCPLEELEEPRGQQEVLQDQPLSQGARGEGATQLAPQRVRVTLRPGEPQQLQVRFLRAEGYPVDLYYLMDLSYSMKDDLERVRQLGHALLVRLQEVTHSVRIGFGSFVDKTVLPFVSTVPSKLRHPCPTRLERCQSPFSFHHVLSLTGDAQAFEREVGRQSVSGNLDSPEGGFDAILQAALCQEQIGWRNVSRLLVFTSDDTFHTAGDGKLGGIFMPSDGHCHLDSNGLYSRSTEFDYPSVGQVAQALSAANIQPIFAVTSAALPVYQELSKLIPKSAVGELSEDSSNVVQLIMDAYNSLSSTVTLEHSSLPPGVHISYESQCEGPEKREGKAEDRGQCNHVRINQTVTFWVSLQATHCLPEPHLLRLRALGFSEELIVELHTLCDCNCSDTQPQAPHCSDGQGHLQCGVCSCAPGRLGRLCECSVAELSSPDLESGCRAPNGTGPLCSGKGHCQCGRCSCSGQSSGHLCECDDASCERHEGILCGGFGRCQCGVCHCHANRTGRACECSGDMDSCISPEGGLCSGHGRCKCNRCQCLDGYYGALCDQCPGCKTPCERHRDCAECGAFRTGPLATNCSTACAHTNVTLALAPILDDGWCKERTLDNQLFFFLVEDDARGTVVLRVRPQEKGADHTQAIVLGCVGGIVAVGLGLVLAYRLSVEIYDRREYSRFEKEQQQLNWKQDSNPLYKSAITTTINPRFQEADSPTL
Experiment: Integrin Adhesion Assay: Protocol 1 (MAdCAM-coated plate, RPMI-8866 cells, CellTiter GLO readout)
Format: cell-based
Particulars: integrin adhesion assay; determined by at least one of the assays described (protocol not specified)
This section presents compounds with their documented IC50 values.

These solved cases illustrate the format of a correct answer.
Smiles	IC50
CCN1CCC(C)(C(=O)N[C@@H](Cc2cccc3c(-n4c(=O)ccn(C)c4=O)cccc23)C(=O)O)CC1	10 to 100 nM
Cn1ccc(C(F)(F)F)c(-c2cccc3c(C[C@H](OCc4c(F)cccc4F)C(=O)O)cccc23)c1=O	> 1000 nM
CC1(C)NC(=O)c2c(-c3cccc4c(C[C@H](NC(=O)c5c(F)cccc5F)C(=O)O)cccc34)cccc21	10 to 100 nM
CCOCc1cc(OC)c(-c2cccc3c(C[C@H](NC(=O)c4c(F)cc(N5CCOC[C@@H]5C(F)(F)F)cc4F)C(=O)O)cccc23)c(OC)c1	< 10 nM
Cn1ccc(=O)n(-c2cccc3c(C[C@H](NC(=O)c4c(F)cc(NS(=O)(=O)c5ccccc5)cc4F)C(=O)O)cccc23)c1=O	< 10 nM

# lookup: Cn1ccc(=O)n(-c2cccc3c(C[C@H](NC(=O)c4cc(C(=O)N5CCc6ccccc6C5)n(-c5ccccc5)n4)C(=O)O)cccc23)c1=O on α4β7 integrin (Homo sapiens (Human), UniProt P13612+P26010), IC50 = > 1000 nM
